Hey, just so you know, these numbers are from patent US9102622B2.

Molecular target: fatty acid amide hydrolase (FAAH) (Rattus norvegicus (Rat))
Experiment: FAAH enzyme assay: inhibition of anandamide (AEA) hydrolysis, arachidonic acid quantified by HPLC
Type: biochemical
Conditions: eight-point assay; anandamide hydrolysis by FAAH; read-out: IC50
pIC50: −log10 of the molar value.
Criterion: pIC50 meeting or surpassing 7. Met: met. Not met: not met.

In: Is it the case that COc1ccc(CCCCC(=O)C(F)(F)F)cc1 [Compound 27.4] has pIC50 reaching or exceeding 7?
Out: not met

In: Answer whether pIC50 of O=C(CCCCCOc1ccccc1OCc1ccccc1)C(F)(F)F [Compound 23.10] is greater than or equal to 7.
Out: not met

In: Identify whether the reported pIC50 of the following compound is 7 or greater: O=C(CCCOc1ccccc1OCc1ccccc1)C(F)(F)F [Compound 23.8]
Out: not met

In: Given CC(=O)C(F)(F)CCCCCOc1ccccc1 [Compound 89.4, 3,3-difluoro-8-phenoxy-2-octanone] , state whether its pIC50 is at least 7.
Out: not met

In: # bool: pIC50 of Cc1nnc(C(=O)C(F)(F)CCCCCCOc2ccccc2)o1 [Compound 89.7] >= 7
Out: met

In: // inclusive: pIC50 at least 7? input: Cc1nnc(C(=O)C(F)(F)CCCCOc2cccc(OCc3ccccc3)c2)o1 [Compound 89.13]
Out: met

In: Given the entry O=S(=O)(F)CCCCOc1ccccc1 [Compound 17, 4-Phenoxybutylsulfonyl fluoride] , answer whether its pIC50 meets or surpasses 7.
Out: not met

In: Threshold query (pIC50 >= 7) on O=C(CCCOc1ccc(OCc2ccccc2)cc1)C(F)(F)F [Compound 23.1]
Out: not met

In: Is pIC50 for O=C(CCCCCCOc1ccccc1)c1nnc(CO)o1 [Compound 74.1] at or above 7?
Out: met

In: Say whether O=C(CCCCCOc1ccc(OCc2ccccc2)cc1)C(F)(F)F [Compound 23.3] shows pIC50 of 7 or more.
Out: not met

In: Identify whether the reported pIC50 of the following compound is 7 or greater: O=C(CCCCOc1ccccc1O)C(F)(F)F [Compound 24.9]
Out: not met

In: Evaluate O=S(=O)(Cl)CCCCOc1ccccc1 [Compound 16, 4-Phenoxybutyl sulfonyl chloride] : pIC50 at minimum 7?
Out: not met

In: Determine whether this compound has pIC50 no lower than 7: O=C(CCCOc1ccccc1)C(F)(F)F [Compound 23.11, 1,1,1-Trifluoro-5-phenoxy-2-pentanone]
Out: not met

In: Hi, just wondering whether O=S(=O)(F)CCCCCc1ccc(OCc2ccccc2)cc1 [Compound 13.4] shows pIC50 of 7 or higher.
Out: not met

In: Is the recorded value of pIC50 equal to or greater than 7 for this compound? O=C(CCCCCCOc1ccc(OCc2ccccc2)cc1)c1nnc(COCc2ccccc2)o1 [Compound 73.2]
Out: met

In: Check the entry OC(O)(c1ccccn1)C(F)(F)CCCCOc1ccccc1 [Compound 89.9 Hydrate form] : does pIC50 equal or exceed 7?
Out: met

In: Reported pIC50 reaches at least 7 for CCOC(=O)C(=O)CCCCCOc1ccccc1 [Compound 87.4] ?
Out: not met

In: Please tell me: is the compound O=C(CCCCOc1cccc(O)c1)C(F)(F)F [Compound 24.6] at or over 7 in terms of pIC50?
Out: not met

In: Is it the case that O=C(CCCOc1cccc(OCc2ccccc2)c1)C(F)(F)F [Compound 23.5] has pIC50 reaching or exceeding 7?
Out: not met

In: Please indicate if the recorded pIC50 for CC(=O)C(F)(F)CCCCOc1cccc(OCc2ccccc2)c1 [Compound 89.1] meets or exceeds 7.
Out: not met

In: Dear colleague, could you confirm whether O=S(=O)(Cl)CCCCCCCc1cccc(OCc2ccccc2)c1 [Compound 12.2] has pIC50 at or above 7?
Out: not met

In: Does the compound O=C(CCCCCCOc1ccc(O)cc1)c1nnc(COCc2ccccc2)o1 [Compound 74.2] have recorded pIC50 that is 7 or more?
Out: met

In: Item O=C(CCCCCCOc1ccc(O)cc1)C(F)(F)F [Compound 24.4] with pIC50 of 7 or above?
Out: not met

In: pIC50 >= 7 for O=C(CCCOc1ccc(O)cc1)C(F)(F)F [Compound 24.1] ?
Out: not met

In: Threshold query (pIC50 >= 7) on O=C(CCCCCOc1cccc(O)c1)C(F)(F)F [Compound 24.7]
Out: not met

In: Form field: pIC50 at least 7? Entry: O=C1c2ccccc2S(=O)(=O)N1CCCCOc1ccc(OCc2ccccc2)cc1 [Compound 83.3]
Out: not met

In: Would you say Cc1nnc(C(=O)C(F)(F)c2ccc(-c3ccccc3)cc2)o1 [Compound 93.1] shows pIC50 at minimum 7?
Out: not met

In: Does the compound O=C1c2ccccc2S(=O)(=O)N1CCCCOc1ccccc1 [Compound 83.2, N-(4-Phenoxy-butyl)saccharin] have recorded pIC50 that is 7 or more?
Out: not met

In: # check: pIC50 of O=C1c2ccccc2S(=O)(=O)N1CCCCOc1ccc(O)cc1 [Compound 84, N-[4-(4-Hydroxy-phenoxy)-butyl]saccharin] is greater than or equal to 7
Out: not met

In: Could you tell me if the measured pIC50 of CCOC(=O)Nc1ccc(Br)cc1 [Compound 48.2] reaches 7 or more?
Out: not met

In: Please tell me: is the compound O=C(CCCCc1ccccc1)C(F)(F)F [Compound 27.2, 1,1,1-Trifluoro-6-phenyl-2-hexanone] at or over 7 in terms of pIC50?
Out: not met

###

I'd appreciate it if you could supply inhibition at 100 µM values for the items below.
Molecular target: fatty acid amide hydrolase (FAAH) (Rattus norvegicus (Rat), UniProt P97612)
Sequence (P97612 whole entry): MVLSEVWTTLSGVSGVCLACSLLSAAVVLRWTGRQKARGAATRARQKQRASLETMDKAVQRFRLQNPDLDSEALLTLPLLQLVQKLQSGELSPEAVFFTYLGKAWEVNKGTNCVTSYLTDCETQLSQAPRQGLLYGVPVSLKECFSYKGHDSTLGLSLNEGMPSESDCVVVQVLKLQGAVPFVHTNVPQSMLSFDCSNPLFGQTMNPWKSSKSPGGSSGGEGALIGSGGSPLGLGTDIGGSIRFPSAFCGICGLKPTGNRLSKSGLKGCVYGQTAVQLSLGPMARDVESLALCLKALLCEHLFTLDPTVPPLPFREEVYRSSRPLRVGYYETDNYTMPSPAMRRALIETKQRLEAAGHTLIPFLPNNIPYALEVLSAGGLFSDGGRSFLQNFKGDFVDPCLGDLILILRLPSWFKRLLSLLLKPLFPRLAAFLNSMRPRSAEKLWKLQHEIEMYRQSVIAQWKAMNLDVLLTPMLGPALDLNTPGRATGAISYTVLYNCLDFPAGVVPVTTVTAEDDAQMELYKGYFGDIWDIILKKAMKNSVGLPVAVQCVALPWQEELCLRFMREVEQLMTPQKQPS
Assay: FAAH enzyme assay: inhibition of anandamide (AEA) hydrolysis, arachidonic acid quantified by HPLC
Type: biochemical
Conditions: one-point assay, inhibitor 100 μM; partially purified rat brain FAAH, 15 min; read-out: % Inhibition (Concentration)
Please give a number only; it is taken to be in %.

In: // inhibition at 100 µM lookup, key: O=S(=O)(Cl)CCCCCCCc1ccccc1OCc1ccccc1
Out: 97

In: So what's the measured inhibition at 100 µM for this one? O=S(=O)(Cl)CCCCCc1ccc(OCc2ccccc2)cc1
Out: 95

In: Entry under review: O=S(=O)(F)CCCCCCCc1ccccc1O . Reported inhibition at 100 µM?
Out: 100

In: Data request, read-out inhibition at 100 µM, for CCCCCCC(C)(C)c1cc(OCOC)c(-c2ccc(NC(=O)OCC)cc2)c(OCOC)c1
Out: 64

In: Consider the molecule O=C(CCCCCCOc1ccccc1)c1nnc(COCc2ccccc2)o1 and give its measured inhibition at 100 µM.
Out: 94

In: What inhibition at 100 µM value was documented for this molecule, O=C(Cc1cccc(-c2cccc(OCc3ccccc3)c2)c1)C(F)(F)F ?
Out: 54

###

Field: inhibition at 100 µM. Provide a value for each of the compounds that follow.
Molecular target: fatty acid amide hydrolase (FAAH) (Rattus norvegicus (Rat), UniProt P97612)
Assay: FAAH enzyme assay: inhibition of anandamide (AEA) hydrolysis, arachidonic acid quantified by HPLC
Type: biochemical
Conditions: one-point assay, inhibitor 100 μM; partially purified rat brain FAAH, 15 min; read-out: % Inhibition (Concentration)
API: value field is a number in %; no unit string.

In: Endpoint output: inhibition at 100 µM of O=S(=O)(F)CCCc1ccccc1 [Compound 4.1, 3-Phenyl-propanesulfonyl fluoride, reference compound] . Value?
Out: 19

In: Please report the recorded inhibition at 100 µM for CCOC(=O)Nc1ccc(Br)cc1 .
Out: 84

In: Item O=C(CCCOc1ccccc1)C(F)(F)F has what recorded inhibition at 100 µM?
Out: 79

In: # input compound: O=S(=O)(F)CCCCCCCc1cccc(OCc2ccccc2)c1 ; wanted: its inhibition at 100 µM
Out: 97

In: Which value of inhibition at 100 µM has been reported for O=C(CCCOc1ccc(O)cc1)C(F)(F)F in the records?
Out: 68

In: What does the data say about its inhibition at 100 µM? Entry: O=C(CCCCOc1ccccc1OCc1ccccc1)C(F)(F)F
Out: 97

In: Which value of inhibition at 100 µM has been reported for O=C(CCCc1ccccc1)C(F)(F)F in the records?
Out: 46

In: Form field: reported inhibition at 100 µM of O=S(=O)(Cl)CCCCOc1ccccc1 [Compound 16, 4-Phenoxybutyl sulfonyl chloride]
Out: 99

In: Item Cc1nnc(C(=O)CCCCCCOc2ccc(OCc3ccccc3)cc2)o1 has what recorded inhibition at 100 µM?
Out: 96

###

Target: UniProt:P97612
Assay: FAAH enzyme assay: inhibition of anandamide (AEA) hydrolysis, arachidonic acid quantified by HPLC
Type: biochemical
Details: one-point assay, inhibitor 100 μM; partially purified rat brain FAAH, 15 min; read-out: % Inhibition (Concentration)
measurement label: inhibition at 100 µM (%)
Reply with just the number (in %).

In: What measured inhibition at 100 µM goes with O=C(CCCCc1ccccc1)C(F)(F)F ?
Out: 53

In: Suppose we examine the compound O=C(CCCCOc1ccccc1O)C(F)(F)F ; what inhibition at 100 µM value has been reported?
Out: 60

In: Look up inhibition at 100 µM for this compound: O=S(=O)(Cl)CCCCCCCc1cccc(OCc2ccccc2)c1
Out: 97

In: Any idea what inhibition at 100 µM was measured for O=S(=O)(F)CCCCCc1ccc(O)cc1 ?
Out: 99

In: inhibition at 100 µM for O=C(CCCOc1ccccc1OCc1ccccc1)C(F)(F)F ?
Out: 46

In: Form field: reported inhibition at 100 µM of O=C(CCCCCOc1ccc(O)cc1)C(F)(F)F
Out: 86

In: Fill in: inhibition at 100 µM of O=C(Nc1ccc(Br)cc1)OC12CC3CC(CC(C3)C1)C2 is ___
Out: 56

In: So what's the measured inhibition at 100 µM for this one? CC(=O)C(F)(F)CCCCCOc1ccccc1
Out: 87

In: Entry under review: COc1ccc(CCCCC(=O)C(F)(F)F)cc1 . Reported inhibition at 100 µM?
Out: 82

In: // query inhibition at 100 µM value for entry CCCCCCc1ccc(O)c(-c2ccc(C(=O)C(F)(F)F)cc2)c1OC
Out: 81

In: // inhibition at 100 µM lookup, key: O=S(=O)(F)CCCCCCCc1ccc(O)cc1
Out: 100

In: Which inhibition at 100 µM value is on record for O=C(CCCCCCOc1ccccc1)C(F)(F)c1ccccn1 ?
Out: 86

In: Please give the measured inhibition at 100 µM for this compound: CCOC(=O)C(=O)c1ccc(-c2ccccc2)cc1 [Compound 91.1, Ethyl 2-(biphenyl-4-yl)-2-oxoacetate]
Out: 86

In: # get_value(readout='inhibition at 100 µM', item= O=C(CCCCCCOc1ccc(O)cc1)C(F)(F)F )
Out: 89

In: Record request: inhibition at 100 µM value, item O=C(CCCCOc1ccc(O)cc1)C(F)(F)F
Out: 60

In: Requested field: inhibition at 100 µM. Item: COc1cccc(C(=O)c2nnc(C)o2)c1
Out: 24

In: Give the measured inhibition at 100 µM of O=S(=O)(F)CCCCCCCc1cccc(O)c1 .
Out: 99

In: Look up inhibition at 100 µM for this compound: O=C(CCCCCOc1ccc(OCc2ccccc2)cc1)C(F)(F)F
Out: 94

In: Reported inhibition at 100 µM, compound O=C(CCCCCCOc1ccc(O)cc1)c1nnc(COCc2ccccc2)o1 : ____
Out: 92
